Where these numbers come from: ChEMBL document CHEMBL3808280

Entries and their measured pEC50 follow.
system: Staphylococcus aureus; experiment: Antibacterial activity against methicillin resistant Staphylococcus aureus subsp. aureus HPV107 (ATCC BAA-44) assessed as reduction in bacterial growth incubated for 6 to 8 hrs; assay type: functional, organism-based
// field semantics: pEC50 = negative decimal log of concentration (mol/L)

Request: Please give the measured pEC50 for this molecule: CO[C@H]1/C=C/O[C@@]2(C)Oc3c(C)c(O)c4c(O)c(c(/C=N/N5CCN(C)CC5)c(O)c4c3C2=O)NC(=O)/C(C)=C\C=C\[C@H](C)[C@H](O)[C@@H](C)[C@@H](O)[C@@H](C)[C@H](OC(C)=O)[C@@H]1C
Result: 6.82

Request: # query: pEC50 of entry O=C1/C(=C/c2ccc(O)c(O)c2)SC(=S)N1c1ccc(O)cc1
Result: 5.04

Request: Request the reported pEC50 associated with CNC(=O)Oc1c(Br)cc2sc(=O)oc2c1Br
Result: 4.13
